experimental_target: Neuronal acetylcholine receptor; alpha4/beta2 (Rattus norvegicus, UniProt P09483+P12390)
Sequence (P09483 whole entry): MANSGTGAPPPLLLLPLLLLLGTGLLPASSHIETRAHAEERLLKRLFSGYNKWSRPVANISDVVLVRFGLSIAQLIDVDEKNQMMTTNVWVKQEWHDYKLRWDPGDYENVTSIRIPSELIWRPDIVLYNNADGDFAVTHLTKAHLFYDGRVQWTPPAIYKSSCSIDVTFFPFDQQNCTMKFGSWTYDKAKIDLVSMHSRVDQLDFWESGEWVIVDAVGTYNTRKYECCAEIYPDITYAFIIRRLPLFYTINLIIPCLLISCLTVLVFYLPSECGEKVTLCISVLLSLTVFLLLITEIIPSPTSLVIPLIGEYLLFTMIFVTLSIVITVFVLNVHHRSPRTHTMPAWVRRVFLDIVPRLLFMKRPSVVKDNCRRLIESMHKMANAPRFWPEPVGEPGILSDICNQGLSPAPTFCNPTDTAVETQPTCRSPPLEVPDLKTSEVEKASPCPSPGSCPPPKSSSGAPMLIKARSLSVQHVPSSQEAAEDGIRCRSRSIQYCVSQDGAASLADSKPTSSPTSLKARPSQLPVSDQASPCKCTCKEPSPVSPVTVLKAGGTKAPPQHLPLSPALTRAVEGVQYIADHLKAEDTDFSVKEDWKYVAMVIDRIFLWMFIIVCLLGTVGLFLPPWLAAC
Sequence (P12390 whole entry): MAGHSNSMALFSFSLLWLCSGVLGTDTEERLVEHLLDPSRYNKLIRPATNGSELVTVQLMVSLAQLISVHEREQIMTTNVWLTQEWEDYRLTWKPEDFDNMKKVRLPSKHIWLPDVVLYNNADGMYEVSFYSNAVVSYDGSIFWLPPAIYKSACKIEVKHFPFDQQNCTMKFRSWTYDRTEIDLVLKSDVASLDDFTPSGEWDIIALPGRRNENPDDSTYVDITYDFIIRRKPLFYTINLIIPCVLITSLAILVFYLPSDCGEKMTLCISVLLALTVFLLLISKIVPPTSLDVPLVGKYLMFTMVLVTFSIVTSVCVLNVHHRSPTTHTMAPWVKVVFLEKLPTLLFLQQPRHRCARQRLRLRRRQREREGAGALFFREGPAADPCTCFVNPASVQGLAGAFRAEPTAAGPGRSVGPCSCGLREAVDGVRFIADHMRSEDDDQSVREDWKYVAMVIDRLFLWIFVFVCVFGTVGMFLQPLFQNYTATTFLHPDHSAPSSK
measurement_protocol: Inhibition of [3H]nicotine binding to nicotinic acetylcholine receptor alpha4-beta2 of rat cortex
Catalogue of Ki readings, one per entry.
endpoint_label: Ki (nM)

| compound | result_unit | result_number |
| --- | --- | --- |
| O=c1cccc2n1C[C@@H]1CNC[C@H]2C1 (single isomer, unassigned) | nM | 0.17 |
| O=[N+]([O-])c1ccc2c(c1)C1CNCC2C1 (racemic) | nM | 0.75 |
| c1ccc2c(c1)C1CNCC2C1 | nM | 20 |
| c1cnc2cc3c(cc2n1)[C@@H]1CNC[C@H]3C1 | nM | 0.06 |

----------
experimental_target: Neuronal acetylcholine receptor; alpha3/beta4 (Homo sapiens, UniProt P30926+P32297)
Sequence (P30926 whole entry): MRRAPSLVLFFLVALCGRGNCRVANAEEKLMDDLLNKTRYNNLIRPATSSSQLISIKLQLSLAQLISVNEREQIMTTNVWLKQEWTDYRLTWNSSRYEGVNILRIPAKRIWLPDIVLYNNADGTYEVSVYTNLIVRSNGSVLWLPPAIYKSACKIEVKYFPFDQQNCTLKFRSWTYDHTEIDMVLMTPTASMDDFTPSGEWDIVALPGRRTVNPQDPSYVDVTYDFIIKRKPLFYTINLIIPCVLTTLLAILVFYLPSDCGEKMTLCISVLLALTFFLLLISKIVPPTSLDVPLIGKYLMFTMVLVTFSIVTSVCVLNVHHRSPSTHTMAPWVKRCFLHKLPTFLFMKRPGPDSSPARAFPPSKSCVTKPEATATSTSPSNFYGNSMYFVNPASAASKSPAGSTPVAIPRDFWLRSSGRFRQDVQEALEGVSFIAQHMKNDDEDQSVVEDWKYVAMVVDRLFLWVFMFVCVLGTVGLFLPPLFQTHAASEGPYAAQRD
Sequence (P32297 whole entry): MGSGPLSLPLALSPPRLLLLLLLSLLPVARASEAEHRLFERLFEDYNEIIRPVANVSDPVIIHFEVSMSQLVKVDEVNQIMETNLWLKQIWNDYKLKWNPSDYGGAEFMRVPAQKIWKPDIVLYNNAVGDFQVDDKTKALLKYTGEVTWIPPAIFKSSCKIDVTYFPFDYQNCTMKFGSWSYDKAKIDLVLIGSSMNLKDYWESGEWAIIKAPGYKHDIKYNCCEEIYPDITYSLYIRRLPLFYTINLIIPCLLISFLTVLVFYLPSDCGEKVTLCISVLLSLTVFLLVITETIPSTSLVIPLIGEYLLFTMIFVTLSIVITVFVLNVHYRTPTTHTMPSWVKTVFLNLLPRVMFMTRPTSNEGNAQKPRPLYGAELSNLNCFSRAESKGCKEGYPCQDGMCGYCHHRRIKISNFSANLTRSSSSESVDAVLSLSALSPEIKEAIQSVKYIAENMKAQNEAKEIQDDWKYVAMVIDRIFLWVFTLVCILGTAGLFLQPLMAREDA
measurement_protocol: Inhibition of [3H]epibatidine binding to nicotinic acetylcholine receptor alpha3-beta4 of human IMR32 cells
pKi: −log10 of the molar value.

| molecule | pKi |
| --- | --- |
| O=[N+]([O-])c1ccc2c(c1)C1CNCC2C1 (racemic) | 6.68 |
| c1ccc2c(c1)C1CNCC2C1 | 5.55 |
| O=c1cccc2n1C[C@@H]1CNC[C@H]2C1 (single isomer, unassigned) | 6.08 |

----------
Examples of compounds with documented Ki follow.
experimental_target: Neuronal acetylcholine receptor subunit alpha-7 (Rattus norvegicus)
Sequence (Q05941 whole entry): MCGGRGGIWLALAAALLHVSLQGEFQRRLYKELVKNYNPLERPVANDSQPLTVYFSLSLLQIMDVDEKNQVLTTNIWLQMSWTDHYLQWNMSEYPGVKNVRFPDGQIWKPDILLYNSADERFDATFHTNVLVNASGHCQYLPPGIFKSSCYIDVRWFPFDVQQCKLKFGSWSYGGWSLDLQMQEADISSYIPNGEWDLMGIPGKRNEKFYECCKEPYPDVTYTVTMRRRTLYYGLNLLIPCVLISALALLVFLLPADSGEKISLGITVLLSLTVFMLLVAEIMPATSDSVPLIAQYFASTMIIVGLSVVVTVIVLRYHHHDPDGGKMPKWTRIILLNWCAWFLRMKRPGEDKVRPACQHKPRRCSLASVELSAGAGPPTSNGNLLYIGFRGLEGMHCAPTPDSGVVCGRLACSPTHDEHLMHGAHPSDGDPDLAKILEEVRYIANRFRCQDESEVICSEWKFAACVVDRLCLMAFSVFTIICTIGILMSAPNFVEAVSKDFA
measurement_protocol: Inhibition of [125I]alpha-bungarotoxin binding to nicotinic acetylcholine receptor alpha-7 subunit in rat GH4C1 cells

| compound | value_prefix | Ki (µM) |
| --- | --- | --- |
| c1ccc2c(c1)C1CNCC2C1 | > | 5 |
| O=c1cccc2n1C[C@@H]1CNC[C@H]2C1 (single isomer, unassigned) | = | 4.2 |
| c1cnc2cc3c(cc2n1)[C@@H]1CNC[C@H]3C1 | = | 0.322 |
| O=[N+]([O-])c1ccc2c(c1)C1CNCC2C1 (racemic) | = | 7.34 |

----------
experimental_target: Acetylcholine receptor (Torpedo californica, UniProt P02710+P02712+P02714+P02718)
Sequence (P02710 whole entry): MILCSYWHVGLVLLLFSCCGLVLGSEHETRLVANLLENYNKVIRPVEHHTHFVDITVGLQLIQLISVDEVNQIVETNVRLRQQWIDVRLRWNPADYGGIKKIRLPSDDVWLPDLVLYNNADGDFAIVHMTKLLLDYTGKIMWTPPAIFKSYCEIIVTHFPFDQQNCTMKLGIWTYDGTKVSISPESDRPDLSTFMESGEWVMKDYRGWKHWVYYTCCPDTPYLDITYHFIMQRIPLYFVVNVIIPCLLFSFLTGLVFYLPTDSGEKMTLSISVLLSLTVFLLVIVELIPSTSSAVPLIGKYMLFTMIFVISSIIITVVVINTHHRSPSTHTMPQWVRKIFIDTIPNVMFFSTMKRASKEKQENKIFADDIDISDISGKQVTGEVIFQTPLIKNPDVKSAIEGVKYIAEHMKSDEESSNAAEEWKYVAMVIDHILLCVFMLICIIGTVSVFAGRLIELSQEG
Sequence (P02712 whole entry): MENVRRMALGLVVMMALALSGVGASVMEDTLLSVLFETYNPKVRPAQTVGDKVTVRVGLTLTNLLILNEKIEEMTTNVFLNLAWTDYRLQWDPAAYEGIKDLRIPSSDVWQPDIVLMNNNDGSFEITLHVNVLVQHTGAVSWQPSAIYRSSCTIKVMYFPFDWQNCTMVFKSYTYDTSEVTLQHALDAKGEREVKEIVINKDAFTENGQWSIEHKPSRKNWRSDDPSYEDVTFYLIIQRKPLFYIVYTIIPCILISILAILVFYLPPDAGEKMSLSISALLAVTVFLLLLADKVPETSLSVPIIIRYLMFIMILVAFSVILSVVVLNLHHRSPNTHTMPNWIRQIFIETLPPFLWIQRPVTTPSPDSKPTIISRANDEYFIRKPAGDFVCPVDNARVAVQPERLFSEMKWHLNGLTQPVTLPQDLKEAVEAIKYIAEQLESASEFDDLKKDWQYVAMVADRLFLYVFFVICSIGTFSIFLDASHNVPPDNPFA
Sequence (P02718 whole entry): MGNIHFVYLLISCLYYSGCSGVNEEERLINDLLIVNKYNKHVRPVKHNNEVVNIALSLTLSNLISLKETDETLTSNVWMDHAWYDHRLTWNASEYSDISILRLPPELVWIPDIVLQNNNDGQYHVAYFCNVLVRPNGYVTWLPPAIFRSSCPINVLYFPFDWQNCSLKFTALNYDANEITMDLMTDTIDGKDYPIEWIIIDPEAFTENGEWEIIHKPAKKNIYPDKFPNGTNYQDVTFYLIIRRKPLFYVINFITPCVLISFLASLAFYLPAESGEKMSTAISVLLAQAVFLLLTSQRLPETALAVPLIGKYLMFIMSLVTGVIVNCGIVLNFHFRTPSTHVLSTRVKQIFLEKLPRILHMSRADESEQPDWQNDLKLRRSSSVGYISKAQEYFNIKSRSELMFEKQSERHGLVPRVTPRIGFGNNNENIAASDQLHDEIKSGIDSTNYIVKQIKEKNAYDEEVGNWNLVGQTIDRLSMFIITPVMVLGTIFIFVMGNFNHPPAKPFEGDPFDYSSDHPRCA
Sequence (P02714 whole entry): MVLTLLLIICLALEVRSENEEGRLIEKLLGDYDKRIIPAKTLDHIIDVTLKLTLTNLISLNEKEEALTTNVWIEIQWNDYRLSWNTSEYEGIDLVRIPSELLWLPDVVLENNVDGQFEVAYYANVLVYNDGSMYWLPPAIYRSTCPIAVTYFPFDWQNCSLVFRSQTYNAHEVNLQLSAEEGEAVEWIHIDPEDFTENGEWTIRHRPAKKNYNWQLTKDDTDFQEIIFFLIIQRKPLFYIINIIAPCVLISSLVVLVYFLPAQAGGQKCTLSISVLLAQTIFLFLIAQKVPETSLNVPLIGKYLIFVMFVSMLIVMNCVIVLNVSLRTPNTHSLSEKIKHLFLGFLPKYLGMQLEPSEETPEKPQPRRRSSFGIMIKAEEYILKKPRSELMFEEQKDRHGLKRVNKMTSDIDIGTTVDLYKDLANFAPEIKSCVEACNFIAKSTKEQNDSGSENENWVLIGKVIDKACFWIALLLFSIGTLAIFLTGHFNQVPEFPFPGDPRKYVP
measurement_protocol: Inhibition of [125I]alpha-bungarotoxin binding to nicotinic acetylcholine receptor alpha1 beta gamma delta of electroplax
endpoint_label: log10 of Ki (log10 of the value in nM)

| molecule | result_number |
| --- | --- |
| O=[N+]([O-])c1ccc2c(c1)C1CNCC2C1 (racemic) | 2.84 |
| CN1CCC[C@H]1c1cccnc1 [NICOTINE] | 3.80 |
| O=c1cccc2n1C[C@@H]1CNC[C@H]2C1 (single isomer, unassigned) [CYTISINICLINE] | 2.40 |
| c1ccc2c(c1)C1CNCC2C1 | 2.57 |
| c1cnc2cc3c(cc2n1)[C@@H]1CNC[C@H]3C1 | 3.55 |

----------
Measured inhibition values are reported for all entries that follow.
experimental_target: Neuronal acetylcholine receptor; alpha4/beta2 (Homo sapiens) (UniProt P17787+P43681)
measurement_protocol: Percent antagonist activity against 10 uM nicotine at human nicotinic acetylcholine receptor alpha4-beta2 at 10 uM
Type: functional
endpoint_label: inhibition (%)

| compound | endpoint_label | result_number |
| --- | --- | --- |
| c1ccc2c(c1)C1CNCC2C1 | inhibition | 35 |
| O=[N+]([O-])c1ccc2c(c1)C1CNCC2C1 (racemic) | inhibition | 20 |
| O=c1cccc2n1C[C@@H]1CNC[C@H]2C1 (single isomer, unassigned) [CYTISINICLINE] | inhibition | 30 |
| c1cnc2cc3c(cc2n1)[C@@H]1CNC[C@H]3C1 | inhibition | 34 |
